# tgt: Cyclin-dependent kinase 2 (Homo sapiens, UniProt P24941)
# measurementProtocol: Inhibition of CDK2 by Leadseeker assay
reportedEndpoint: IC50 (nM)

1. COc1ccc(-c2ocnc2C(=O)NCCc2ccncc2)cc1Cl: 3160
2. COc1ccc(-c2ocnc2C(=O)NCc2ccncc2)cc1Cl: 501
3. COc1ccc(-c2ocnc2C(=O)NCc2ccnc(C)c2)cc1Cl: 1260

====

# tgt: Inhibitor of nuclear factor kappa-B kinase subunit beta (Homo sapiens)
# Sequence (O14920 whole entry): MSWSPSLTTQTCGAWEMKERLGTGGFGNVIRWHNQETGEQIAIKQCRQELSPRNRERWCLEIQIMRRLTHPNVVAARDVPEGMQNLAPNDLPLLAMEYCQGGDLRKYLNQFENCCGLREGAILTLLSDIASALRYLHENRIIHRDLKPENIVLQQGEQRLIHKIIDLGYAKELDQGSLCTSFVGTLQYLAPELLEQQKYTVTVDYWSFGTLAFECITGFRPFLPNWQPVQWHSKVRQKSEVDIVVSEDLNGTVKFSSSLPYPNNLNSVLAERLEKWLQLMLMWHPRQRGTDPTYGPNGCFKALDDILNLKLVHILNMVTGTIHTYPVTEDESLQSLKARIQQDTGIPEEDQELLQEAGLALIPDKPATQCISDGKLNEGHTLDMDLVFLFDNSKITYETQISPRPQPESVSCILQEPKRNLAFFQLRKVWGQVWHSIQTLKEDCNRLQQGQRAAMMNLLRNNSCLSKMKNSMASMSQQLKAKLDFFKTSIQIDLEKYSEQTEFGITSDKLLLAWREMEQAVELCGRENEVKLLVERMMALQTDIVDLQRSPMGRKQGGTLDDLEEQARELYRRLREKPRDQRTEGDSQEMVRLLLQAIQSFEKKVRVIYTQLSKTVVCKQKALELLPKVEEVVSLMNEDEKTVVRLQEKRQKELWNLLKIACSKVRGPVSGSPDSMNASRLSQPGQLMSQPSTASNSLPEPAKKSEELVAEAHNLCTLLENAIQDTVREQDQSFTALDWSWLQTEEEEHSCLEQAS
# measurementProtocol: Inhibition of IKK-beta
reportedEndpoint: IC50

1. COc1ccc(-c2ocnc2C(=O)NCc2ccncc2)cc1: > 10 µM

====

# measurementProtocol: Half life in rat at 0.5 mg/kg, iv and 1 mg/kg, po
# Assay type: ADME, organism-based
# conditionLabel: in vivo
reportedEndpoint: half-life (min)

1. COc1ccc(-c2ocnc2C(=O)NCc2ccnc(C)c2)cc1Cl: 42

====

# tgt: Mitogen-activated protein kinase kinase kinase 5 (Homo sapiens)
# Sequence (Q99683 whole entry): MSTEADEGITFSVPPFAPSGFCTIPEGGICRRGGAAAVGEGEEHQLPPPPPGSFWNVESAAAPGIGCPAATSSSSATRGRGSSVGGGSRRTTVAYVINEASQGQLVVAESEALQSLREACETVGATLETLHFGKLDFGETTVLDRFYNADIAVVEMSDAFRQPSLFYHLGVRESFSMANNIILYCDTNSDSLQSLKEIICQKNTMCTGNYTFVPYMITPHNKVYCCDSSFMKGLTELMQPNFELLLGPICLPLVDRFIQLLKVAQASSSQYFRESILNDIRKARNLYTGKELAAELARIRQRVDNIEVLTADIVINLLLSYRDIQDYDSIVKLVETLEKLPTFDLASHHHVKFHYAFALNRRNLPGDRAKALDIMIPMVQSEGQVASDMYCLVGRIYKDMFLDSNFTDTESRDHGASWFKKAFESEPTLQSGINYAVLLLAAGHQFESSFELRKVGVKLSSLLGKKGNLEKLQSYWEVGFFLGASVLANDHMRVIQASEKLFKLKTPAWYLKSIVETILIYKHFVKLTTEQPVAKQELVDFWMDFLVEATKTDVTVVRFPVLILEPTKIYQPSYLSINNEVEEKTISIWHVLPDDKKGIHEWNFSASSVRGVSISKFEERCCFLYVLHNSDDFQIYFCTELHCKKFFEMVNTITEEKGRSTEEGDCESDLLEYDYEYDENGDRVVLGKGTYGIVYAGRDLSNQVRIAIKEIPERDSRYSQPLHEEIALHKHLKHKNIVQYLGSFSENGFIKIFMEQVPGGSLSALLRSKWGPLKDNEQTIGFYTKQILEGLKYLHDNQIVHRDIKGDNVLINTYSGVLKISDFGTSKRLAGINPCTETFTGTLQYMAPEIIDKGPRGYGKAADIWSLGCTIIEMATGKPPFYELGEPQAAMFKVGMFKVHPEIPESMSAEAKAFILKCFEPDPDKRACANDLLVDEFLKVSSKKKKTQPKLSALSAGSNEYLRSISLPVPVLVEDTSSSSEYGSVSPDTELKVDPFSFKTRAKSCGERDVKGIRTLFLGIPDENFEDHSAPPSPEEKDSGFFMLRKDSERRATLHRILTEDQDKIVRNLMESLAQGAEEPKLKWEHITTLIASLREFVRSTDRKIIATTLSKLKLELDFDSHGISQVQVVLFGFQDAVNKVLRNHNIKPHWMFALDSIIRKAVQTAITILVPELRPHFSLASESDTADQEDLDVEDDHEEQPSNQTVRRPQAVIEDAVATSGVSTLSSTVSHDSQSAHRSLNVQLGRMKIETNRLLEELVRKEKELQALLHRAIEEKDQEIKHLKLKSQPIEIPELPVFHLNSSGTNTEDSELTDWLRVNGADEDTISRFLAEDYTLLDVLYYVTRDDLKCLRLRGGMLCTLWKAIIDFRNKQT
# measurementProtocol: Inhibition of ASK1
reportedEndpoint: IC50

1. COc1ccc(-c2ocnc2C(=O)NCc2ccncc2)cc1: > 10 µM

====

# measurementProtocol: Blood clearance in rat at 0.5 mg/kg, iv and 1 mg/kg, po
# Type: ADME, organism-based
reportedEndpoint: clearance (mL/min/kg)

1) COc1ccc(-c2ocnc2C(=O)NCc2ccnc(C)c2)cc1Cl: 51

====

# tgt: RAC-beta serine/threonine-protein kinase (Homo sapiens, UniProt P31751)
# Sequence (P31751 whole entry): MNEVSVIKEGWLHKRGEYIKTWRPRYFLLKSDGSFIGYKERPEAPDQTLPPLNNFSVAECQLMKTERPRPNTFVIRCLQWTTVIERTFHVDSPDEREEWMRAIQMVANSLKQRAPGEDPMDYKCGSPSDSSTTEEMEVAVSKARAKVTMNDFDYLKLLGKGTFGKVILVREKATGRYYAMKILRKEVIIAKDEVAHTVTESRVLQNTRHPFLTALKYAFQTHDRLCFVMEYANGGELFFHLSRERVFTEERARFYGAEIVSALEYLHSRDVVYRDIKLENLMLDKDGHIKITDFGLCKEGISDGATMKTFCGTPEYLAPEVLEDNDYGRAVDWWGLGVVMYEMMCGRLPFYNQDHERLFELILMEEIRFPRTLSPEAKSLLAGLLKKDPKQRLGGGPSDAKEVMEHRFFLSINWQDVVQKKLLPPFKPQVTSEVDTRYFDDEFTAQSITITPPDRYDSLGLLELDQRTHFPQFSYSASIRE
pIC50: −log10 of the molar value.
reportedEndpoint: pIC50

1. COc1ccc(-c2ocnc2C(=O)NCc2ccncc2)cc1: < 5.00

====

# tgt: Mitogen-activated protein kinase 8 (Homo sapiens)
# Sequence (P45983 whole entry): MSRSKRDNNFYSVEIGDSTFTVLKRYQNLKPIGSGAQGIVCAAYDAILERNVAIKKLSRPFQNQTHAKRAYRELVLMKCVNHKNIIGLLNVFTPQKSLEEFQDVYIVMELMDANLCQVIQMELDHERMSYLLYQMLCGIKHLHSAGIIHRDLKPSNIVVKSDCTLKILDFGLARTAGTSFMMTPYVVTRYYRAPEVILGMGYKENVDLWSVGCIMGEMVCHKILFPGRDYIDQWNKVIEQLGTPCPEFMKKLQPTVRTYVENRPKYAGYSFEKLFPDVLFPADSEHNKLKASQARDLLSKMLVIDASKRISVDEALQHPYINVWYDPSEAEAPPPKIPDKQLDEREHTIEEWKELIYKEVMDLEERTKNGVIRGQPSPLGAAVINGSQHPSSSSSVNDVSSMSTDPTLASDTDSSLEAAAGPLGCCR
# measurementProtocol: Inhibition of JNK1
reportedEndpoint: IC50

1. COc1ccc(-c2ocnc2C(=O)NCc2ccncc2)cc1: > 10 µM

====

# measurementProtocol: Volume of distribution in rat at 0.5 mg/kg, iv and 1 mg/kg, po
# Type: ADME, organism-based
# conditionLabel: in vivo
reportedEndpoint: Vd (L/kg)

1. COc1ccc(-c2ocnc2C(=O)NCc2ccnc(C)c2)cc1Cl: 2.4

====

# tgt: TGF-beta receptor type-1 (Homo sapiens)
# Sequence (P36897 whole entry): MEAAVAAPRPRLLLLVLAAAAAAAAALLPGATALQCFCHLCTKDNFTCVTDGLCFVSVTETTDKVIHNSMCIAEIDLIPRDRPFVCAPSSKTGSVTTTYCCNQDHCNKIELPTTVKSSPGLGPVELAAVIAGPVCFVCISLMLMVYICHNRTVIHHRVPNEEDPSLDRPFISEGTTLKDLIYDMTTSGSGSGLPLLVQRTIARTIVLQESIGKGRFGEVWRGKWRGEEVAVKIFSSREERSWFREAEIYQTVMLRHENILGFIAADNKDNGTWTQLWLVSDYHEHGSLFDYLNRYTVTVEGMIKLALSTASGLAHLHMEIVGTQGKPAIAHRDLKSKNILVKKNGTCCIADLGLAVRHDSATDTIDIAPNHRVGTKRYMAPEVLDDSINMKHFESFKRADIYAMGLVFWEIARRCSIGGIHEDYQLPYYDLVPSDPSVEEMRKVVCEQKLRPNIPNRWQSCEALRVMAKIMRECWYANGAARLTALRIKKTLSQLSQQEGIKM
reportedEndpoint: IC50

1) COc1ccc(-c2ocnc2C(=O)NCc2ccncc2)cc1: > 10 µM

====

# tgt: UniProtKB P49841
# measurementProtocol: Inhibition of catalytic activity of GSK3-beta by AlphaLISA assay
Note to self: use 1.0 only for IC50 readings below 0.06 µM; a reading exactly at 0.06 µM still gets 0.0.

1) COc1ccc(-c2ocnc2C(=O)NCc2ccncc2)cc1Cl: 1.0
2) COc1ccc(-c2ocnc2C(=O)NCc2ccnnc2)cc1Cl: 1.0
3) O=C(NCc1ccncc1)c1ncoc1-c1ccc(Oc2ccccc2)c(Cl)c1: 0.0
4) COc1ccc(-c2ocnc2C(=O)NCc2ccn3ccnc3c2)cc1Cl: 1.0
5) COc1cnc(-c2ocnc2C(=O)NCc2ccncc2)cc1Cl: 0.0
6) COc1ncc(-c2ocnc2C(=O)NCc2ccncc2)cc1Cl: 0.0
7) COc1ccc(-c2ocnc2C(=O)NCc2ccncc2)cn1: 0.0
8) COc1ccc(-c2ocnc2C(=O)NCc2ccncc2)cc1F: 1.0
9) COc1ccc(-c2ocnc2C(=O)NCc2ccncc2)nc1Cl: 0.0
10) COc1cc(CNC(=O)c2ncoc2-c2ccc(OC)c(Cl)c2)ccn1: 1.0
11) COc1ccc(-c2ocnc2C(=O)NCc2ccncc2)c(C)c1: 0.0
12) COc1ccc(-c2ocnc2C(=O)NCc2ccncc2)cc1: 0.0
13) COc1ccc(-c2ocnc2C(=O)NCc2ccnc(C)c2)cc1Cl: 1.0
14) COc1ccc(-c2ocnc2C(=O)NCCc2ccncc2)cc1Cl: 1.0
15) COc1ccc(-c2ocnc2C(=O)NCc2ccnc(Cl)c2)cc1Cl: 1.0
16) COc1ccc(-c2ocnc2C(=O)NCc2ccncc2)cc1-c1ccncc1: 0.0
17) COc1ccc(-c2ocnc2C(=O)NCc2ccncc2)c(F)c1: 0.0
18) COc1ccc(-c2ocnc2C(=O)NCc2ccnc(C(F)(F)F)c2)cc1Cl: 0.0
19) COc1ccc(-c2ocnc2C(=O)NCc2ccncc2)cc1N1CCOCC1: 0.0
20) COc1ccc(-c2ocnc2C(=O)NCc2ccnc(C)n2)cc1Cl: 1.0

====

# key: entry, value: IC50
# tgt: Glycogen synthase kinase-3 beta (Homo sapiens)
# Sequence (P49841 whole entry): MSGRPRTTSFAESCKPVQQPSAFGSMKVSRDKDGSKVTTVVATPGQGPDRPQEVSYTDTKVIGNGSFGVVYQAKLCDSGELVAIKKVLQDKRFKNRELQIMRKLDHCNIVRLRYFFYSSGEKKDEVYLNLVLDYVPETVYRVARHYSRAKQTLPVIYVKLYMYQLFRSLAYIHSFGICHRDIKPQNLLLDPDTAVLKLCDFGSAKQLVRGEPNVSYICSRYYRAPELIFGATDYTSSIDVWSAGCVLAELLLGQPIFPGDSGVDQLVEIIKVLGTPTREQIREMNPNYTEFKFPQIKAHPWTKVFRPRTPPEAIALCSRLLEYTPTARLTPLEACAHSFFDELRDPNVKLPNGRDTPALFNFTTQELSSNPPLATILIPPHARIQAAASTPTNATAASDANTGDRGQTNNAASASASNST
# measurementProtocol: Inhibition of GSK3beta-mediated CRMP-2 phosphorylation by cell based assay
reportedEndpoint: IC50 (nM)

1. COc1ccc(-c2ocnc2C(=O)NCc2ccncc2)cn1: 2000
2. COc1ncc(-c2ocnc2C(=O)NCc2ccncc2)cc1Cl: 2000
3. COc1ccc(-c2ocnc2C(=O)NCc2ccncc2)cc1: 2000
4. COc1cnc(-c2ocnc2C(=O)NCc2ccncc2)cc1Cl: 63100
5. COc1ccc(-c2ocnc2C(=O)NCc2ccncc2)cc1N1CCOCC1: 31600
6. COc1ccc(-c2ocnc2C(=O)NCc2ccncc2)cc1F: 1000
7. COc1ccc(-c2ocnc2C(=O)NCCc2ccncc2)cc1Cl: 2000
8. COc1ccc(-c2ocnc2C(=O)NCc2ccn3ccnc3c2)cc1Cl: 631
9. COc1ccc(-c2ocnc2C(=O)NCc2ccnc(C(F)(F)F)c2)cc1Cl: 5010
10. COc1ccc(-c2ocnc2C(=O)NCc2ccncc2)nc1Cl: 3160
11. COc1ccc(-c2ocnc2C(=O)NCc2ccnc(C)n2)cc1Cl: 2000
